The reported numbers originate from paper PMC11062922.

tested on: MAPK14; design: species or system human, MV4-11 + K-562 + COLO205 + SK-N-BE2 + OVCAR-8; conditions: read-out: apparent Kd; compound concentrations:100 nM and 1000 nM (sheet 'Samples'); n = 1
Here the recorded potency estimated from few doses is given for each entry.
Give just the numeric value; nM need not be written.

Illustrative cases are given below, each with its answer.
CN1CCC(n2cnc(-c3ccc(F)cc3)c2-c2ccnc(N)n2)CC1 [SB-220455]    22
CCN(CC)CCOc1ccc(Nc2ncc3cc(-c4c(Cl)cccc4Cl)c(=O)n(C)c3n2)cc1 [SB-601273]    678
O=c1c(Oc2ccc(F)cc2F)cc2cnc(NC3CCOCC3)nc2n1CCCO [RO4442245-000]    0.149

-- ask // fetch potency estimated from few doses given entry Cl.Cn1c(=O)c(Oc2ccc(F)cc2F)cc2cnc(NC3CCS(=O)(=O)CC3)nc21 [RO3308271-001]
-- reply 16.5

-- ask // fetch potency estimated from few doses given entry Cc1ccc2c(-c3ccncc3)c(-c3ccc(F)cc3)nn2c1.Cl [GW461484A]
-- reply 465

-- ask // fetch potency estimated from few doses given entry N#Cc1ccc(Oc2nccc(-c3c(-c4ccc(F)cc4)ncn3C3CCNCC3)n2)cc1 [SB-242721]
-- reply 844
